- System: 786-0 renal
- assayInfo: NCI-60 one-dose screen, 48 h
- conditionNotes: 10 µM unless noted
The panel holds about 83,000 compounds, 20% with a hit somewhere; the sample as a whole holds those more often. The source made the active and inactive calls. Rule for the calls: active = growth percent below 10; inactive = the rest.
Allowed answers: active, inactive

These recorded examples may help you get a feel for the data.
Cn1cc(-c2cc(N)n3nc(-c4cn(C)c5ncccc45)cc3n2)c2cccnc21 | inactive
COc1cc(-c2nc3ccc(C)cc3[nH]2)ccc1OCc1nnc(-c2ccc(Br)cc2)o1 | active
C=C1CC[C@@H]2[C@]3(C)COC(c4cn[nH]c4-c4cccc(Br)c4)O[C@@H]3CC[C@@]2(C)[C@@H]1C/C=C1/C(=O)OCC1O (stereo partly drawn) | active
CSc1ccc(NC(=O)c2ccc3nn(/C(C#N)=C/c4ccccn4)nc3c2)cc1 | active
COc1cc(C2CC(c3cc(OC)c(OC)c(OC)c3)=NN2C(C)=O)ccc1OCc1ccccc1 (stereo not drawn) | inactive
CC(=O)OC[C@@]1(C)C2CC[C@]3(C)C(CC=C4C5CC(C)(C)CC[C@]5(C(=O)Nc5ccc(F)cc5)CC[C@]43C)[C@@]2(C)C[C@@H](OC(C)=O)[C@@H]1OC(C)=O (stereo partly drawn) | inactive
COc1c(F)ccc(C(=O)Nc2ccc3nc(NC(=O)C4CCCN(S(=O)(=O)c5ccc(C(F)(F)F)cc5)C4)sc3c2)c1F (stereo not drawn) | inactive

Now examine the next entry.
Status in this test for `O=C(Nc1ccccc1)N1CCN(c2cc(-c3cn(-c4ccccc4)nc3-c3cccc(O)c3)ccn2)CC1` ?
inactive

====

- Test system: HOP-62 NSCLC
- assayInfo: NCI-60 one-dose screen, 48 h
- conditionNotes: 10 µM unless noted
The panel holds about 83,000 compounds, 20% with a hit somewhere; the sample as a whole holds those more often. The source made the active and inactive calls. The calls were made as follows: active = growth percent below 10; inactive = the rest.
Assign a class; possible classes are label 1 = active, label 0 = inactive

O=C(Cn1c(/C=C/c2cccc([N+](=O)[O-])c2)nc2ccccc2c1=O)Nc1ccccc1 | label 0
O=C(c1ccc(OCCN2CCOCC2)cc1)C1[C@H](c2ccc(Cl)cc2)[C@@H](c2ccccc2)NC12C(=O)Nc1ccc(Br)cc12 (some centres not stated) | label 0
Cc1ccc(C(=O)CSc2nc3ccc(F)cc3c(=O)n2-c2ccc(Cl)cc2)cc1 | label 1
COc1ccc(C(=O)/C=C/c2cccnc2)cc1S(N)(=O)=O | label 0

Please let me know the test result on file for `C[C@H]1CN(C(=O)c2ccc3c(NNC(=O)c4ccncn4)nc4cc(F)c(F)cc4n23)CCN1` .
label 0

What do you get for `CC(=O)Oc1ccccc1C(=O)[Se]CC(=O)Nc1cccc(C(F)(F)F)c1` ?
label 1

====

Quick list: growth per entry.
- System: U251 CNS
- assayInfo: NCI-60 one-dose screen, 48 h (100 = growth as untreated, 0 = no growth, -100 = all killed)
- conditionNotes: 10 µM unless noted
About 83,000 compounds went through this panel and 20% of them were active in at least one assay; those are over-represented in the sample as a whole.
// note: answer is a bare numeric in %

Look over these answered cases.
O=C(O)c1ccc(-c2ccc(/C=N/NC(=O)c3[nH]c4ccc(Br)cc4c3-c3ccccc3)o2)cc1 | 1.17
N#Cc1c(-c2ccc(Br)cc2)nc2n[nH]c(-c3ccc(Br)cc3)c2c1-c1ccc(F)cc1 | 96.7
Cc1occc1C(=O)NN1C(=O)/C(=C/C=C/c2ccc([N+](=O)[O-])o2)SC1=S | -92.7
COc1cc(NC(=O)c2cccc(C3CCc4c(cc(OC)c(OC)c4OC)O3)c2)cc(OC)c1OC (stereo not drawn) | 13.5
S=C(Nc1ccc(OCc2nc3ccccc3[nH]2)cc1)NC1CCCCC1 | 97

Please look up its growth: Cc1ccc([C@H]2C(C(=O)c3ccc(Cl)cc3)C3(N[C@@H]2c2ccccc2)C(=O)Nc2ccccc23)cc1 (stereo partly drawn)
48.6

Continue with Cc1sc2c(c1C)C(c1ccc(Cl)cc1)=N[C@@H](CC(=O)NCCCCCNC(=O)COc1ccc(C3CCC(=O)NC3=O)cc1)c1nnc(C)n1-2 (stereo partly drawn)
45.2

Likewise for `Cc1ccc(C(=O)CSc2nc3ccc(F)cc3c(=O)n2-c2ccc(Cl)cc2)cc1` ?
19.6

====

- Test system: SF-539 CNS
- assayInfo: NCI-60 one-dose screen, 48 h (100 = growth as untreated, 0 = no growth, -100 = all killed)
- conditionNotes: 10 µM unless noted
About 83,000 compounds went through this panel and 20% of them were active in at least one assay; those are over-represented in the sample as a whole.
measuredQuantity: growth (%)
Number only, in %; omit the unit.

Reference set, count: 2
COc1c(F)ccc(C(=O)Nc2ccc3nc(NC(=O)C4CCCN(S(=O)(=O)c5ccc(Br)c(F)c5)C4)sc3c2)c1F (stereo not drawn) | 64.5
CC(=O)OC[C@@]1(C)C2CC[C@]3(C)C(CC=C4C5CC(C)(C)CC[C@]5(C(=O)Nc5ccc(C)cc5)CC[C@]43C)[C@@]2(C)C[C@@H](OC(C)=O)[C@@H]1OC(C)=O (stereo partly drawn) | 43.1

Now examine the next entry.
Entry `Cc1ncsc1-c1ccc(CNC(=O)[C@@H]2C[C@@H](O)CN2C(=O)[C@@H](NC(=O)C2(F)CC2)C(C)(C)C)c(OCCOCCOCCOCCOc2nc(Nc3cc(S(C)(=O)=O)ccc3N[C@@H](c3cccc4c3OC(F)(F)O4)c3ncccc3Cl)nc(N3CCNCC3)n2)c1` , system SF-539 CNS: what growth was measured?
70.1

====

- Tested on: BT-549 breast
- assayInfo: NCI-60 one-dose screen, 48 h (100 = growth as untreated, 0 = no growth, -100 = all killed)
- conditionNotes: 10 µM unless noted
The panel holds about 83,000 compounds, 20% with a hit somewhere; the sample as a whole holds those more often.
measuredQuantity: growth (%)
The figure you give is taken to be in %; do not add the unit.

COC(=O)/C=C/c1cccc2c1C(=O)NC(C)(c1cc3ccccc3oc1=O)N2 (stereo not given) | 58.2

Moving on to the next compound.
Can you share its growth? I mean this compound: `N#Cc1c(-c2ccccc2Cl)cc(-c2c[nH]c3ccccc23)[nH]c1=O`
73.9

====

- System: COLO 205 colon
- assayInfo: NCI-60 one-dose screen, 48 h (100 = growth as untreated, 0 = no growth, -100 = all killed)
- conditionNotes: 10 µM unless noted
This is part of a sample that, as a whole, favours compounds with a hit. Of some 83,000 tested, about 20% had one in any assay.
measuredQuantity: growth (%)
Answer in %, number only, no unit symbol.

CNC(=O)c1cc(Oc2ccc3nc(NC(=O)Nc4cccc(OC(F)(F)F)c4)sc3c2)ccn1 | 68.2
COc1cc(OC)cc(-c2cc3ccc(N(C)C)cc3c(=O)[nH]2)c1 | -44.8

growth lookup needed for COc1cc(C2CC(c3ccc(S(=O)(=O)NCCNc4nc(Nc5ccc(F)cc5)nc(N(C)C)n4)cc3)=Nc3c(N)nc(N)nc3N2)cc(OC)c1OC (centres undefined) , thanks.
104

# repeat for `CCCCSc1nc(NCCc2c[nH]c3ccccc23)c(C#N)c(-c2ccc(OC)cc2)n1`
74.6

====

- Tested on: RPMI-8226 leukemia
- assayInfo: NCI-60 one-dose screen, 48 h (100 = growth as untreated, 0 = no growth, -100 = all killed)
- conditionNotes: 10 µM unless noted
Compounds without any hit were thinned out: in the full panel of roughly 83,000, 20% have a hit.
Please note: rule met applies when growth is 80% or greater, and rule not met applies otherwise.

Cc1cc2c(cc1Cl)C(=O)/C(=C/c1ccc(F)cc1)O2 | rule met

Answer whether growth of `COc1ccc2c(c1)C(=N/N=C(\C)c1ccc(OC)c(S(N)(=O)=O)c1)C(=O)N2` is greater than or equal to 80%.
rule met

Then this compound: `Cn1cc(-c2nnc(N)nc2-c2c[nH]c3ccccc23)c2cccnc21`
rule not met

Also CC(/C=C1\SC(=S)N(CCCC(=O)NC(CC(C)C)C(=O)O)C1=O)=C\c1ccccc1 (stereo not given) ?
rule not met

Follow-up entry: `Cc1cc(C)n(-c2ccc3nnc(-c4ccccc4)n3n2)n1`
rule met

====

- Test system: M14 melanoma
- assayInfo: NCI-60 one-dose screen, 48 h
- conditionNotes: 10 µM unless noted
This is part of a sample that, as a whole, favours compounds with a hit. Of some 83,000 tested, about 20% had one in any assay. Calls of active or inactive are those of the source. Rule for the calls: active = growth percent below 10; inactive = the rest.
Permitted responses: Y = active, N = inactive

// below: answered compounds
Cc1cc2c(cc1Cl)C(=O)/C(=C/c1ccccc1)O2 | N
O=C1c2c(c3c4cc(F)ccc4oc3c3[nH]c4ccc(Br)cc4c23)C(=O)N1O | N
COc1cc2oc(-c3cccc(NC(=O)[C@H](CC(N)=O)NC(=O)OC(C)(C)C)c3)cc(=O)c2c(OC)c1OC | N
COc1c(F)ccc(C(=O)Nc2ccc3nc(NC(=O)C4CCCN(S(=O)(=O)c5cccc(Cl)c5)C4)sc3c2)c1F (stereo not given) | N

Please indicate how the test categorized `O=C(COc1ccc(NC(=O)Nc2ccccc2)cc1)N=Nc1c(O)[nH]c2ccc([N+](=O)[O-])cc12` .
Y
